Target: Luciferin 4-monooxygenase (Photinus pyralis) (UniProt P08659)
Sequence (P08659 whole entry, looked up): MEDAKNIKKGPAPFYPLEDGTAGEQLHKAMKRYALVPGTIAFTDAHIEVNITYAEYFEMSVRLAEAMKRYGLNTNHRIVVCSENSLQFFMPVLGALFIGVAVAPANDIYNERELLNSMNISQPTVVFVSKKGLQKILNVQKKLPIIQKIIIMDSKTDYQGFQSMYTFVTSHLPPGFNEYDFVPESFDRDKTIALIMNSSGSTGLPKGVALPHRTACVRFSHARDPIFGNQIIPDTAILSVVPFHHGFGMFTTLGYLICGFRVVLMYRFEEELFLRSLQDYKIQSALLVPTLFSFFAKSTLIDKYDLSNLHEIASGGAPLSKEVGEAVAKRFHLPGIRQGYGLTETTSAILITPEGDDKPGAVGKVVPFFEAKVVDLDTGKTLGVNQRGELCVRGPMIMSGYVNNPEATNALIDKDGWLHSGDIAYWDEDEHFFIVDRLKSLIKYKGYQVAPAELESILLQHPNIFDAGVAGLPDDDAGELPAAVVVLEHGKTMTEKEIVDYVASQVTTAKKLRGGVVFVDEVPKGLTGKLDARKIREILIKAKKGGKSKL
Assay: qHTS profiling assay for firefly luciferase inhibitor/activator using purifed enzyme and Km concentrations of substrates (counterscreen for miR-21 project); note: nearly all actives have a fitted effect of over 55% in size
Conditions: purified FLuc, luminescence inhibition; series mostly up to 57.5 µM
The campaign covered roughly 360,000 compounds. About 25,000 (6.9%) were called active. Another 9% or so got no clear call; they are omitted. Calls come from the whole dose curve; as a rule, active = well fitted inhibition curve with a large enough effect; inconclusive = small, poorly fitted or top-dose-only effect; inactive = flat fitted curve, though single readings scatter. The list comes from a sample in which actives are over-represented; it also holds close analogues and randomly drawn compounds.
Outcome field: choose from T = active, F = inactive

Below are worked cases with known answers.
MOLECULE	CLASS ASSIGNMENT
CNC(=O)c1csc(-c2ccccc2)n1	F
Cc1ccc2oc(C(=O)Nc3ccc(S(=O)(=O)N4CCCCCC4)cc3)cc(=O)c2c1	F
O=C(Nc1nnc(S(=O)(=O)N2CCCc3ccccc32)s1)c1cccc(F)c1	F
COc1ccc(CNC(=O)c2ccc(NC(=O)N3CC4CCCN4c4ccccc43)cc2)cc1 (stereo not given)	F
CN=C1C=C/C(=N/N=c2\ccn(O)cc2C)C=C1C	T

Prompt: // param item: COc1ccc(-c2nc(Cn3c(=O)cc(C)c4c(C)nn(-c5ccccc5)c43)c(C)o2)c(OC)c1 ; yields the recorded call
Response: F

Prompt: // param item: O=C(Nc1nsc(-c2ccccc2)n1)c1ccncc1 ; yields the recorded call
Response: T

Prompt: // param item: CN(C)c1ccc(NC(=O)c2ccncc2)c2ccccc12 ; yields the recorded call
Response: F

Prompt: // param item: CCOC(=O)CSc1nnc(NC(=O)c2cccc(S(=O)(=O)N3CCCCC3)c2)s1 ; yields the recorded call
Response: F

Prompt: // param item: O=C(Nc1ccc(S(=O)(=O)N2CCC(c3nc4ccccc4s3)CC2)cc1)c1ccccc1F ; yields the recorded call
Response: F
